Examples of compounds with documented HEMOGLOBIN follow.
Species on record: Rattus norvegicus
Protocol text: DrugMatrix - Regimen: Daily Repeat
Format: toxicity, organism-based, Sprague-Dawley
Set-up: regimen Daily Repeat, gender Male, age 6-8 weeks
Measurement parameters: in vivo, po, 0 mg/kg, 72 h, tissue Blood, route oral GAVAGE, dose level Control, time 3 day, […]
Field: numeric (G/DL). Do not append units.

[
  {
    "Line notation": "O=C(O)CCCc1ccc(N(CCCl)CCCl)cc1",
    "HEMOGLOBIN, G/DL": 13.38
  },
  {
    "Line notation": "C[C@@H]1CN(c2c(F)c(N)c3c(=O)c(C(=O)O)cn(C4CC4)c3c2F)C[C@H](C)N1",
    "HEMOGLOBIN, G/DL": 13.57
  },
  {
    "Line notation": "Cc1noc(NS(=O)(=O)c2ccc(N)cc2)c1C",
    "HEMOGLOBIN, G/DL": 14.03
  }
]

For this compound ( Cc1ccc(-c2cc(C(F)(F)F)nn2-c2ccc(S(N)(=O)=O)cc2)cc1 ), measured HEMOGLOBIN is 13.38

For this compound ( CC(C)(Oc1ccc(Cl)cc1)C(=O)O ), measured HEMOGLOBIN is 13.4

For this compound ( C[C@H]1O[C@@H](O[C@H]2[C@@H](O)C[C@H](O[C@H]3[C@@H](O)C[C@H](O[C@H]4CC[C@@]5(C)[C@H](CC[C@@H]6[C@@H]5C[C@@H](O)[C@]5(C)[C@@H](C7=CC(=O)OC7)CC[C@]65O)C4)O[C@@H]3C)O[C@@H]2C)C[C@H](O)[C@@H]1O ), measured HEMOGLOBIN is 13.28

For this compound ( O=c1oc2ccccc2c(O)c1Cc1c(O)c2ccccc2oc1=O ), measured HEMOGLOBIN is 13.27

For this compound ( OC(Cn1cncn1)(Cn1cncn1)c1ccc(F)cc1F ), measured HEMOGLOBIN is 13.38

----------
Examples of compounds with documented LACTATE DEHYDROGENASE follow.
Species on record: Rattus norvegicus
Protocol text: DrugMatrix - Regimen: Daily Repeat
Type: toxicity, organism-based, Sprague-Dawley
Design: regimen Daily Repeat, gender Male, age 6-8 weeks
Measurement parameters: in vivo, po, 0 mg/kg, […], tissue Plasma, route oral GAVAGE, dose level Control, time 14 day, vehicle .5 % CMC

Answered examples (3):
[
  {
    "Compound": "COc1ccc(C(=O)Nc2c(Cl)c[n+]([O-])cc2Cl)c2ccc(C(F)(F)F)nc12 [SCH-351591]",
    "LACTATE DEHYDROGENASE": "133.17 u/L"
  },
  {
    "Compound": "CCOP(=S)(OCC)Oc1nc(Cl)c(Cl)cc1Cl [CHLORPYRIFOS]",
    "LACTATE DEHYDROGENASE": "115.33 u/L"
  },
  {
    "Compound": "ClC(Cl)Br [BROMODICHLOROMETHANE]",
    "LACTATE DEHYDROGENASE": "121.33 u/L"
  }
]

For this compound ( ClC(Br)Br [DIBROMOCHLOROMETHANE] ), measured LACTATE DEHYDROGENASE is 121.33 u/L

----------
Species: Rattus norvegicus
Protocol text: DrugMatrix - Regimen: Daily Repeat
Assay type: toxicity, organism-based, Sprague-Dawley
Design: regimen Daily Repeat, gender Male, age 6-8 weeks
Measurement parameters: in vivo, po, 0 mg/kg, 120 h, tissue Blood, route oral GAVAGE, dose level Control, time 5 day, vehicle 100 % WATER
Examples of compounds with documented ABSOLUTE EOSINOPHIL follow.
Field: numeric (CELLS/uL). Do not append units.

Answered examples (4):
[
  {
    "Compound": "Cc1onc(-c2ccccc2Cl)c1C(=O)N[C@@H]1C(=O)N2[C@@H]1SC(C)(C)[C@@H]2C(=O)O",
    "Data value": 21
  },
  {
    "Compound": "C[C@H](CS)C(=O)N1CCC[C@H]1C(=O)O",
    "Data value": 80
  },
  {
    "Compound": "CC(O)CO (stereo not given)",
    "Data value": 21
  },
  {
    "Compound": "COc1cc2nc(N3CCN(C(=O)C4COc5ccccc5O4)CC3)nc(N)c2cc1OC (stereo not given)",
    "Data value": 26.67
  }
]

Alright, here's another compound for you.
For this compound ( C[C@](N)(Cc1ccc(O)c(O)c1)C(=O)O ), measured ABSOLUTE EOSINOPHIL is 23.5

----------
Species on record: Rattus norvegicus
Protocol text: DrugMatrix - Regimen: Daily Repeat
Format: toxicity, organism-based, Sprague-Dawley
Design: regimen Daily Repeat, gender Male, age 6-8 weeks
Measurement parameters: in vivo, po, 0 mg/kg, 72 h, tissue Plasma, route oral GAVAGE, dose level Control, time 3 day, […]
Use 4 G/DL as the dividing line for ALBUMIN, with the line itself on the Criterion met side and lower values as Criterion not met.

[
  {
    "Compound": "CC(C)(Oc1ccc(Cl)cc1)C(=O)O",
    "Category label": "Criterion met"
  }
]

INPUT: # bool: ALBUMIN of Cc1oncc1C(=O)Nc1ccc(C(F)(F)F)cc1 [LEFLUNOMIDE] >= 4 G/DL
OUTPUT: Criterion not met

INPUT: # bool: ALBUMIN of CC(C)C(=O)Nc1ccc([N+](=O)[O-])c(C(F)(F)F)c1 [FLUTAMIDE] >= 4 G/DL
OUTPUT: Criterion not met

----------
Species on record: Rattus norvegicus
Protocol text: DrugMatrix - Regimen: Daily Repeat
Format: toxicity, organism-based, Sprague-Dawley
Set-up: regimen Daily Repeat, gender Male, age 6-8 weeks
Measurement parameters: in vivo, po, 0 mg/kg, 120 h, tissue Blood, route oral GAVAGE, dose level Control, time 5 day, vehicle .5 % CMC
Examples of compounds with documented NUCLEATED RED BLOOD CELLS follow.

[
  {
    "Line notation": "CCn1cc(C(=O)O)c(=O)c2cc(F)c(N3CCNCC3)cc21",
    "NUCLEATED RED BLOOD CELLS": "0.33 /100WBC"
  },
  {
    "Line notation": "CC(C)(C)NC(=O)[C@@H]1C[C@@H]2CCCC[C@@H]2CN1C[C@@H](O)[C@H](Cc1ccccc1)NC(=O)[C@H](CC(N)=O)NC(=O)c1ccc2ccccc2n1",
    "NUCLEATED RED BLOOD CELLS": "0.17 /100WBC"
  }
]

Alright, here's another compound for you.
For this compound ( COc1nc(C)nc(Cl)c1N=C1NCCN1 ), measured NUCLEATED RED BLOOD CELLS is 0.17 /100WBC

----------
Species on record: Rattus norvegicus
Protocol text: DrugMatrix - Regimen: Daily Repeat
Type: toxicity, organism-based, Sprague-Dawley
Set-up: regimen Daily Repeat, gender Male, age 6-8 weeks
Measurement parameters: in vivo, po, 0 mg/kg, 72 h, tissue Plasma, route oral GAVAGE, dose level Control, time 3 day, […]
Examples of molecules with documented PHOSPHORUS follow.

[
  {
    "Molecule": "Cc1ccc(-c2cc(C(F)(F)F)nn2-c2ccc(S(N)(=O)=O)cc2)cc1 [CELECOXIB]",
    "PHOSPHORUS": "10.65 mg/dL"
  },
  {
    "Molecule": "CN(C)c1nc(N(C)C)nc(N(C)C)n1 [ALTRETAMINE]",
    "PHOSPHORUS": "10.88 mg/dL"
  },
  {
    "Molecule": "Cc1noc(NS(=O)(=O)c2ccc(N)cc2)c1C [SULFISOXAZOLE]",
    "PHOSPHORUS": "11.73 mg/dL"
  },
  {
    "Molecule": "CCC(C)n1ncn(-c2ccc(N3CCN(c4ccc(OCC5COC(Cn6cncn6)(c6ccc(Cl)cc6Cl)O5)cc4)CC3)cc2)c1=O (centres undefined) [ITRACONAZOLE]",
    "PHOSPHORUS": "10.65 mg/dL"
  },
  {
    "Molecule": "CCOC(=O)C1=C(COCCN)NC(C)=C(C(=O)OC)C1c1ccccc1Cl (centres undefined) [AMLODIPINE]",
    "PHOSPHORUS": "10.88 mg/dL"
  },
  {
    "Molecule": "O=c1oc2ccccc2c(O)c1Cc1c(O)c2ccccc2oc1=O [DICUMAROL]",
    "PHOSPHORUS": "10.85 mg/dL"
  },
  {
    "Molecule": "C[C@H]1O[C@@H](O[C@H]2[C@@H](O)C[C@H](O[C@H]3[C@@H](O)C[C@H](O[C@H]4CC[C@@]5(C)[C@H](CC[C@@H]6[C@@H]5C[C@@H](O)[C@]5(C)[C@@H](C7=CC(=O)OC7)CC[C@]65O)C4)O[C@@H]3C)O[C@@H]2C)C[C@H](O)[C@@H]1O [DIGOXIN]",
    "PHOSPHORUS": "9.27 mg/dL"
  },
  {
    "Molecule": "O=NN(CCCl)C(=O)NC1CCCCC1 [LOMUSTINE]",
    "PHOSPHORUS": "10.88 mg/dL"
  },
  {
    "Molecule": "Cc1oncc1C(=O)Nc1ccc(C(F)(F)F)cc1 [LEFLUNOMIDE]",
    "PHOSPHORUS": "11.83 mg/dL"
  },
  {
    "Molecule": "C[C@@H]1CN(c2c(F)c(N)c3c(=O)c(C(=O)O)cn(C4CC4)c3c2F)C[C@H](C)N1 [SPARFLOXACIN]",
    "PHOSPHORUS": "10.88 mg/dL"
  }
]

For this molecule ( CC(C)(Oc1ccc(Cl)cc1)C(=O)O [CLOFIBRIC ACID] ), measured PHOSPHORUS is 11.3 mg/dL

For this molecule ( O=C(O)CCCc1ccc(N(CCCl)CCCl)cc1 [CHLORAMBUCIL] ), measured PHOSPHORUS is 10.65 mg/dL

For this molecule ( OC(Cn1cncn1)(Cn1cncn1)c1ccc(F)cc1F [FLUCONAZOLE] ), measured PHOSPHORUS is 10.65 mg/dL

For this molecule ( CC(C)C(=O)Nc1ccc([N+](=O)[O-])c(C(F)(F)F)c1 [FLUTAMIDE] ), measured PHOSPHORUS is 10.33 mg/dL
